molecular target: d-enCas12a (Acidaminococcus sp., UniProt U2UMQ6 1-1307, E174R;S542R;K548R;D908A;E993A;D1235A); test: Spec-seq (native PAGE EMSA with sequencing of bound and unbound); 25 mM Tris-HCl pH 7.4, 150 mM KCl, 5 mM MgCl2, 10% glycerol, 1 mM DTT, 40 ng/uL salmon sperm DNA; 400 nM Cas12a, 480 nM crRNA, 50 nM library, 37 C 1 h; native PAGE at room temperature; high values mean tight binding; settings: protein: recombinant;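 note: relative affinity from the bound to unbound sequence frequency ratio in Spec-seq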
For each entry below, report its binding signal value.
One number for each entry, in lnKA.

Worked examples, 2 binders total:
CGCG (dsDNA) DNA 1: GCTATCTAGTGCTCAGTACGCACTGCGCGAGGAAACTTCTGGCAGGACCAGGTCATGAGATCGGAAGAGCACACGTCTGAACTCCAGTCA DNA 2: TGACTGGAGTTCAGACGTGTGCTCTTCCGATCTCATGACCTGGTCCTGCCAGAAGTTTCCTCGCGCAGTGCGTACTGAGCACTAGATAGC RNA: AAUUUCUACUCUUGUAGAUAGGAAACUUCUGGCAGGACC :: -3.31
CTGG (dsDNA) DNA 1: GCTATCTAGTGCTCAGTACGCACTGCTGGAGGAAACTTCTGGCAGGACCAGGTCATGAGATCGGAAGAGCACACGTCTGAACTCCAGTCA DNA 2: TGACTGGAGTTCAGACGTGTGCTCTTCCGATCTCATGACCTGGTCCTGCCAGAAGTTTCCTCCAGCAGTGCGTACTGAGCACTAGATAGC RNA: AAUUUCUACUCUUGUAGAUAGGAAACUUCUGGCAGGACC :: -5.9

Dear colleague, I am looking for the recorded binding signal of the following binder: CTGA (dsDNA) DNA 1: GCTATCTAGTGCTCAGTACGCACTGCTGAAGGAAACTTCTGGCAGGACCAGGTCATGAGATCGGAAGAGCACACGTCTGAACTCCAGTCA DNA 2: TGACTGGAGTTCAGACGTGTGCTCTTCCGATCTCATGACCTGGTCCTGCCAGAAGTTTCCTTCAGCAGTGCGTACTGAGCACTAGATAGC RNA: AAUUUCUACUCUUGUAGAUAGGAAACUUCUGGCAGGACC
-5.63
